# Measured target: GLP-1 receptor (GLP-1R) (UniProt P43220 24-463, limits assumed)
# Run description: cell-based or functional assay
Bridge positions count the residues as written; N and C are the ends. Square brackets hold non-standard residues; d marks the D form. Ends that are not written are not given here. stapled body chem0195 = not defined here; stapled body chem0212 = not defined here; αMeF = C[C@](N)(Cc1ccccc1)C(=O)O; αMeL = CC(C)C[C@](C)(N)C(=O)O; Aib = CC(C)(N)C(=O)O
# GLP-1 EC50 (nM); cAMP, agonistic activity annotations
Use nM as the unit, but write only the number.

Worked examples, 5 binders total:
| Binder | Unit abbrev | Measured result |
| --- | --- | --- |
| Y[Aib]QGTFTSDYSI[αMeL]LDKKAQ[Aib]KFIEFLLEGGPSSGAPPPS-NH2 (linker 17-21 via Ida, Lys, Lys, γGlu, C20 diacid) [Example 22] | nM | 0.009 |
| Y[Aib]QGT[αMeF]TSDYSI[αMeL]KDKKAQ[Aib]AFIEYLLKGGPSSGAPPPS-NH2 (bridge 14-17; not fully specified (bridges); also: stapled body (lipidated) structure only in drawing chem0260) [Example 51] | nM | 0.001 |
| Y[Aib]QGTFTSDYSI[αMeL]LDKKAQ[Aib]KFIEYLLKGGPSSGAPPPS-NH2 (linker 21-28 via stapled body chem0212; reading uncertain; also: further groups not given here) [Example 14] | nM | 0.001 |
| Y[Aib]QGTFTSDYSI[αMeL]KDKKAQ[Aib]AFIEYLLKGGPSSGAPPPS-NH2 (linker 14-17 via (2-2-oxoethyl)‑glycine, AEEA, γGlu, C20 diacid) [Example 38] | nM | 0.002 |
| Y[Aib]QGTFTSDYSI[αMeL]LDKKAQ[Aib]AFIKWLLKGGPSSGAPPPS-NH2 (linker 24-28 via stapled body chem0195; reading uncertain; also: further groups not given here) [Example 2] | nM | 0.009 |

If you can, please state the reported GLP-1 EC50 (nM); cAMP, agonistic activity value of Y[Aib]QGTFTSDYSI[αMeL]LDKKAQ[Aib]KFIEFLLKGGPSSGAPPPS-NH2 (linker 21-28 via Ida, Lys, Lys, γGlu, C20 diacid; also: further groups not given here) [Example 26] .
0.014

If you can, please state the reported GLP-1 EC50 (nM); cAMP, agonistic activity value of Y[Aib]QGTFTSDYSI[αMeL]KDKKAQ[Aib]AFIEYLLKGGPSSGAPPPS-NH2 (linker 14-17 via Ida, Lys, Lys, γGlu, C20 diacid; also: further groups not given here) [Example 41] .
0.003

Just for reference, patent EP4624486A1 is where these values come from.
